biological target: human RORγt LBD (Homo sapiens, UniProt P51449); assay: RORγt (LBD) reporter assay in HEK293T cells
Sequence (P51449 258-518): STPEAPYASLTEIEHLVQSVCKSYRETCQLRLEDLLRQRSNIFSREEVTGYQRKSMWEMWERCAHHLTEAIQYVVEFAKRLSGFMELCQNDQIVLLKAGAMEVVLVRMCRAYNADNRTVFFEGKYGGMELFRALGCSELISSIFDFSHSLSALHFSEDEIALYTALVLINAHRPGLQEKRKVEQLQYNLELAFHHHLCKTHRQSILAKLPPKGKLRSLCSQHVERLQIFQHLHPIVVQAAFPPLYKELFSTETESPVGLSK
Metric Name: IC50 (nM)
Numbers only, in nM.

Example entries begin here.
COc1nc2ccc(C(O)(c3ccc(C(F)(F)F)cc3)c3cccnc3)cc2c(Cl)c1Cc1ccc(-n2cccn2)cc1 (single isomer, unassigned) [Example 162b] : 1100
COc1nc2ccc(C(c3ccc(C)nc3C)(c3cnnn3C)N(C)C)cc2c(Cl)c1Cc1ccc(C(F)(F)F)cc1 (single isomer, unassigned) [Example 122c] : 87
COc1nc2ccc(C(O)(c3oc(C)nc3C)c3cnnn3C)cc2c(Cl)c1Cc1ccc(C(F)(F)F)cc1 (single isomer, unassigned) [Example 156b] : 87

Each compound below has a reported value. Please supply its IC50.
1. COc1nc2ccc(C(O)(c3ccc(Cl)cc3)c3cncn3C)cc2c(Cl)c1Cc1cccc(C#N)c1 (centres unmarked)
2. CNC(c1ccc2nc(OC)c(Cc3ccc(C(F)(F)F)cc3)c(Cl)c2c1)(c1ccc(C)nc1C)c1cnnn1C (single isomer, unassigned) [Example 121b]
3. COc1nc2ccc(C(O)(c3cnnn3C)c3cnc(C)n3C)cc2c(Cl)c1Cc1ccc(F)cc1 (single isomer, unassigned) [Example 65c]
4. COc1nc2ccc(C(c3ccc(C)nc3C)(c3cnnn3C)N(C)C)cc2c(Cl)c1Cc1ccc(C(F)(F)F)cc1 (single isomer, unassigned) [Example 122b]
5. COc1nc2ccc(C(O)(c3ccc(C(F)(F)F)cc3)c3cccnc3)cc2c(Cl)c1Cc1ccc(-n2cccn2)cc1 (centres unmarked) [Example 162a]
6. COc1nc2ccc(C(O)(c3ccc(Cl)cc3)c3cncn3C)cc2c(Cl)c1Cc1ccc(C(F)(F)F)nc1 (single isomer, unassigned) [Example 39c]
7. CC(=O)N1CCC(C(O)(c2ccc3nc(C(F)(F)F)c(Cc4ccccc4)c(Cl)c3c2)c2cncn2C)CC1 (single isomer, unassigned) [Example 115c]

Result:
1. 430
2. 410
3. 7.2
4. 1400
5. 310
6. 81
7. 110

Look at each compound and report its IC50.
1. COc1nc2ccc(C(O)(c3ccc(Cl)cc3)c3cncn3C)cc2c(Cl)c1Cc1ccc(C(F)(F)F)nc1 (centres unmarked) [Example 39a]
2. COc1nc2ccc(C(O)(c3ccc(Cl)cc3)c3cncn3C)cc2c(Cl)c1Cc1ccc(C(F)(F)F)nc1 (single isomer, unassigned) [Example 39b]
3. COc1nc2ccc(C(O)(c3ccc(C)nc3C)c3cnnn3C)cc2c(C#N)c1Cc1ccc(F)cc1 (centres unmarked) [Example 49a]

Result:
1. 72
2. 1200
3. 52

Batch request: IC50 for each of the following compounds.
1. COc1nc2ccc(C(O)(c3ccccn3)c3cncn3C)cc2c(Cl)c1Cc1ccc(C(F)(F)F)cc1 (centres unmarked)
2. COc1nc2ccc(C(O)(c3oc(C)nc3C)c3cnnn3C)cc2c(Cl)c1Cc1ccc(C(F)(F)F)cc1 (single isomer, unassigned) [Example 156c]
3. Cn1cncc1C(O)(c1ccc(C(F)(F)F)nc1)c1ccc2nc(-n3cccn3)c(Cc3ccccc3)c(C#N)c2c1 (single isomer, unassigned) [Example 114c]
4. CC(=O)N1CCC(C(O)(c2ccc3nc(C(F)(F)F)c(Cc4ccccc4)c(Cl)c3c2)c2cncn2C)CC1 (single isomer, unassigned) [Example 115b]
5. Cn1cncc1C(O)(c1ccc(C(F)(F)F)nc1)c1ccc2nc(-n3cccn3)c(Cc3ccccc3)c(C#N)c2c1 (single isomer, unassigned) [Example 114b]
6. COc1nc2ccc(C(O)(c3ccc(C)nc3C)c3cnnn3C)cc2c(Cl)c1Cc1ccc(F)cc1 (centres unmarked) [Example 48a]

Result:
1: 65; 2: 1.9; 3: 1900; 4: 480; 5: 1400; 6: 450

The reported measurements were obtained from patent US9284308B2.
